The origin of these recorded values is patent US7534809B2.

assay: PK and oral bioavailability in the dog; format: in vivo, Beagle dogs; settings: Beagle, plasma, PO, 5.0 mg/kg, PEG400
endpoint_label: AUC(0-t) (ng·h/mL)
API: value field is a number in ng·h/mL; no unit string.

Which AUC(0-t) is listed for COP(=O)(C1=C(C(=O)NCc2ccncc2)N=C2C=CC(Cl)=CC21)c1cc(C)cc(C)c1 (stereo not shown) ?
116

###

test: Metabolic stability in dog liver microsomes; format: in vitro ADME; settings: 10 μM, 1 mg/mL microsomes, 37° C., 2 hrs
Kindly apply the following: condition met if Metabolic stability in liver microsomes % Parent after 2 hrs, Dog is less than 30%, condition not met in every other case.

These solved cases illustrate the format of a correct answer.
compound="COP(=O)(C1=C(C(=O)NCc2ccncc2)N=C2C=CC(Cl)=CC21)c1cc(C)cc(F)c1 (centres unmarked)" label="condition met"
compound="COP(=O)(C1=C(C(=O)NCc2ccncc2)N=C2C=CC(Cl)=C(F)C21)c1cc(C)cc(C)c1 (centres unmarked)" label="condition met"
compound="COP(=O)(c1cc(C)cc(F)c1)c1c(C(=O)NCc2cc[n+]([O-])cc2)[nH]c2ccc(Cl)cc12 (centres unmarked)" label="condition not met"
compound="COP(=O)(c1cc(C)cc(C)c1)c1c(C(=O)NCc2cc[n+]([O-])cc2)[nH]c2ccc(Cl)cc12 (centres unmarked)" label="condition not met"

Now, please, on to the next compound.
Is 30% strictly greater than the compound's reported Metabolic stability in liver microsomes % Parent after 2 hrs, Dog? compound: COP(=O)(c1cc(C)cc(C)c1)c1c(C(=O)NCc2cc[n+]([O-])cc2)[nH]c2ccc(Cl)c(F)c12 (centres unmarked)
condition not met
